- experimentalTarget: Glucocorticoid Receptor (Homo sapiens, UniProt P04150)
- Construct: These cells express large amount of the GR and are very responsive to GC treatment; endogenous in cells; host or cells: A549 cells transiently transfected with the MMTV-LUC reporter
- Sequence (P04150 1-777): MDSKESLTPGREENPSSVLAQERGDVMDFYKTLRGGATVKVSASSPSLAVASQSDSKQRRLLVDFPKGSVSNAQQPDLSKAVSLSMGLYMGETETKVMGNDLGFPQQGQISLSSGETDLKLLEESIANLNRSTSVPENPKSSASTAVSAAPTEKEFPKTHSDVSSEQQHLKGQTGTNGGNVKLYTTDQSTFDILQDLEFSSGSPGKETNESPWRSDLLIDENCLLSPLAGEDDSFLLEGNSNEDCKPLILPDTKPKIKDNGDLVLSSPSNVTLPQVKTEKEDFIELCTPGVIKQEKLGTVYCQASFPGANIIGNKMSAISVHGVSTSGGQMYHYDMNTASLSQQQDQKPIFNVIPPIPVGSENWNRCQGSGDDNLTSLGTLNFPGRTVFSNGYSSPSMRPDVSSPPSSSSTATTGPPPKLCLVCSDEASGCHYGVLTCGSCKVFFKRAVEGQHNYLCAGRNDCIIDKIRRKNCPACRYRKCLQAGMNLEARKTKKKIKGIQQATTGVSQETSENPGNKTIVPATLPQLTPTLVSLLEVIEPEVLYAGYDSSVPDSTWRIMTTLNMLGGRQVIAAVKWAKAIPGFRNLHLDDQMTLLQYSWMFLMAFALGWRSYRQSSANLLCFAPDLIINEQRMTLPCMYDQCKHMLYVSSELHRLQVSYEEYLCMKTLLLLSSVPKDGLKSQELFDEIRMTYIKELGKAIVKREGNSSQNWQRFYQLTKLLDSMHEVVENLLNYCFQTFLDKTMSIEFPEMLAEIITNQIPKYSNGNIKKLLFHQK
- assayName: Trans-Activation Modulation of Glucocorticoid Receptor (GRAMMER), MMTV-LUC reporter gene in A549 cells
- Type: cell-based
- conditionSet: inflection point; A549 cells; Table 1; read-out: Transactivation A549 Cells GRAMMER IP
pEC50: −log10 of the molar value.
propertyName: pEC50

a: COc1ccccc1CN(C)C(=O)[C@H]1CCC2=Cc3c(cnn3-c3ccc(F)cc3)C[C@@]21C
b: C[C@]12Cc3cnn(-c4ccc(F)cc4)c3C=C1CC[C@@H]2C(=O)NCc1ccc(Cl)cc1Cl
Hi, I'm comparing two records. Which one has the lower pEC50, a or b ? Which one? Tell me its label. b

a: C[C@]12Cc3cnn(-c4ccc(F)cc4)c3C=C1CC[C@@H]2C(=O)N1CCC(S(=O)(=O)c2ccccc2)CC1
b: CCN(CC(O)C(F)(F)F)C(=O)[C@H]1CCC2=Cc3c(cnn3-c3ccccc3)C[C@@]21C (stereo partly shown) [Compound 77]
Just curious, which one has the larger pEC50 reading, a or b ? Pick one and reply with its label. b

P: C[C@]12Cc3cnn(-c4ccc(F)cc4)c3C=C1CC[C@@H]2C(=O)N1CCCC1CCc1ccccc1 (stereo partly shown)
Q: CCN(CCC(F)(F)F)C(=O)[C@H]1CCC2=Cc3c(cnn3-c3ccc(F)cc3)C[C@@]21C
Could you kindly indicate whether P or Q has the higher pEC50 value? Kindly state the label of the option you pick. Q

Cited source: patent US8338472B2
